Target sequence: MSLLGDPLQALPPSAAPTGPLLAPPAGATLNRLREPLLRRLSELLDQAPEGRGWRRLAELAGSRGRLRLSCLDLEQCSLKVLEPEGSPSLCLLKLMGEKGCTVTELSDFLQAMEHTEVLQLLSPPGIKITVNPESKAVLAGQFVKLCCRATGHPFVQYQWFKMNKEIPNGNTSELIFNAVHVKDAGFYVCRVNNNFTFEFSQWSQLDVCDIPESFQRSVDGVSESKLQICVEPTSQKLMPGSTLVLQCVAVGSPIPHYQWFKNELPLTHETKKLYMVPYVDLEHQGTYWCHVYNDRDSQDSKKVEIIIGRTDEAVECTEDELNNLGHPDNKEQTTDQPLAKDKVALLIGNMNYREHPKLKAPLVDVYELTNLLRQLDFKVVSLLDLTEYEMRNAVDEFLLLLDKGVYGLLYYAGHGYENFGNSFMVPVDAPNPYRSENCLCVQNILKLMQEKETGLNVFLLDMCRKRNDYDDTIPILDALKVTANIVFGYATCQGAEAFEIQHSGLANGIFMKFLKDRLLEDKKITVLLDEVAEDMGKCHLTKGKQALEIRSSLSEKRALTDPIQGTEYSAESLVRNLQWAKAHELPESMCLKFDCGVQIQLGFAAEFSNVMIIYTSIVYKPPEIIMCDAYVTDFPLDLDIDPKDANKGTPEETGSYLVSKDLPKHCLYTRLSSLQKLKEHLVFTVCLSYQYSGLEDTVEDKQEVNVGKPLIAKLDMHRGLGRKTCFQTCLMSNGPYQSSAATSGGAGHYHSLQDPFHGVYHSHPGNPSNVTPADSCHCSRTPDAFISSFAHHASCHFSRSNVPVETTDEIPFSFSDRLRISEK
pIC50: −log10 of the molar value.
readoutName: pIC50

Reference set, count: 5
querysmiles=Cn1nc(-c2ccnc3nccn23)c(C(F)(F)F)c1C(=O)Nc1ccnc(C(F)(F)F)c1 readoutname=pIC50 result="5.60 to 6.30"
querysmiles=Cn1nc(C(=O)c2ccccc2)c(C(F)(F)F)c1C(=O)Nc1ccnc(C(F)(F)F)c1 readoutname=pIC50 result="5.60 to 6.30"
querysmiles=Cn1nc2c(c1C(=O)Nc1cnc(-n3nccn3)c(Cl)c1)CCCc1ccccc1-2 readoutname=pIC50 result="5.60 to 6.30"
querysmiles=Cn1nc(-c2cccc3c2CCNC3)c(C(F)(F)F)c1C(=O)Nc1ccnc(C(F)(F)F)c1 readoutname=pIC50 result="< 5.00"
querysmiles=Cn1nc(-c2cccc3c2CC(=O)N3)c(C(F)(F)F)c1C(=O)Nc1ccnc(C(F)(F)F)c1 readoutname=pIC50 result="5.60 to 6.30"

Prompt line: In one line, give reported pIC50 of the entry Cn1nc(-c2cccc3c2OCC(=O)N3)c(C(F)(F)F)c1C(=O)Nc1ccnc(C(F)(F)F)c1 .
Response line: 5.00 to 5.60

Prompt line: Please list pIC50 recorded for the compound Cn1nc(-c2cccc3nc(N)sc23)c(C(F)(F)F)c1C(=O)Nc1ccnc(C(F)(F)F)c1
Response line: 5.60 to 6.30

* * *

Target protein (sequence): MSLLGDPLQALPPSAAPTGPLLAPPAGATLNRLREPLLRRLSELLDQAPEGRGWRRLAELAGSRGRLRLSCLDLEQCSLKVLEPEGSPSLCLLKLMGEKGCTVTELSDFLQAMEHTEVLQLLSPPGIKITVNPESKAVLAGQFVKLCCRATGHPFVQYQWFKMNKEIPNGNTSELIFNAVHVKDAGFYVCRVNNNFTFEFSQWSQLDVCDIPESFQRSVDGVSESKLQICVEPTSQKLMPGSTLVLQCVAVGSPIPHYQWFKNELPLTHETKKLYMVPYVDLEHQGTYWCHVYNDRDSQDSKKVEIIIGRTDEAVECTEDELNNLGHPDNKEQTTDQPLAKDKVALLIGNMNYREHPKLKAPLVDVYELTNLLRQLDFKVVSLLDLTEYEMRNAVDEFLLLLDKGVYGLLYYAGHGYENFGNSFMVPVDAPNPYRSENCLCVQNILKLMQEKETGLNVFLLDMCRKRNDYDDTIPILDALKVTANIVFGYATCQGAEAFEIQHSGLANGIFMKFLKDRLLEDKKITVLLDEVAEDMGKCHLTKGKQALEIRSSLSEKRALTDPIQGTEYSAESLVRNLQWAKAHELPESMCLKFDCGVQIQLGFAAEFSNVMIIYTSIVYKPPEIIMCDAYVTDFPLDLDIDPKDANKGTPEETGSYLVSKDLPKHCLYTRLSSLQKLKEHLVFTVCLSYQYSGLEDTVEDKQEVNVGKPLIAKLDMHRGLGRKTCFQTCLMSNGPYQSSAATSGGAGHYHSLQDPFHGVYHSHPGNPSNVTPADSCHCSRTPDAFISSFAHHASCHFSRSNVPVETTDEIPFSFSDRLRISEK
readoutName: IC50

Use the examples below as a reference point.
querysmiles=Cn1nc(-c2cccc3c2ccn3CC(=O)O)c(C(F)(F)F)c1C(=O)Nc1ccnc(C(F)(F)F)c1 result="> 10000 nM"
querysmiles=Cn1nc(-c2cccc3nccn23)c(C(F)(F)F)c1C(=O)Nc1cnc(-n2nccn2)c(Cl)c1 result="< 500 nM"
querysmiles=Cn1nc(-c2cccc3cnn(C)c23)c(C(F)(F)F)c1C(=O)Nc1ccnc(C(F)(F)F)c1 result="500 to 2500 nM"

Prompt line: Identify measured IC50 corresponding to Cn1nc(-c2ccccc2)cc1C(=O)Nc1ccc(C(=O)N2CC(O)C2)c(Cl)c1
Response line: > 10000 nM

* * *

Each entry below lists one item and its recorded IC50 value.
systemTested: MALT1 (Homo sapiens)
Sequence (Q9UDY8 1-824): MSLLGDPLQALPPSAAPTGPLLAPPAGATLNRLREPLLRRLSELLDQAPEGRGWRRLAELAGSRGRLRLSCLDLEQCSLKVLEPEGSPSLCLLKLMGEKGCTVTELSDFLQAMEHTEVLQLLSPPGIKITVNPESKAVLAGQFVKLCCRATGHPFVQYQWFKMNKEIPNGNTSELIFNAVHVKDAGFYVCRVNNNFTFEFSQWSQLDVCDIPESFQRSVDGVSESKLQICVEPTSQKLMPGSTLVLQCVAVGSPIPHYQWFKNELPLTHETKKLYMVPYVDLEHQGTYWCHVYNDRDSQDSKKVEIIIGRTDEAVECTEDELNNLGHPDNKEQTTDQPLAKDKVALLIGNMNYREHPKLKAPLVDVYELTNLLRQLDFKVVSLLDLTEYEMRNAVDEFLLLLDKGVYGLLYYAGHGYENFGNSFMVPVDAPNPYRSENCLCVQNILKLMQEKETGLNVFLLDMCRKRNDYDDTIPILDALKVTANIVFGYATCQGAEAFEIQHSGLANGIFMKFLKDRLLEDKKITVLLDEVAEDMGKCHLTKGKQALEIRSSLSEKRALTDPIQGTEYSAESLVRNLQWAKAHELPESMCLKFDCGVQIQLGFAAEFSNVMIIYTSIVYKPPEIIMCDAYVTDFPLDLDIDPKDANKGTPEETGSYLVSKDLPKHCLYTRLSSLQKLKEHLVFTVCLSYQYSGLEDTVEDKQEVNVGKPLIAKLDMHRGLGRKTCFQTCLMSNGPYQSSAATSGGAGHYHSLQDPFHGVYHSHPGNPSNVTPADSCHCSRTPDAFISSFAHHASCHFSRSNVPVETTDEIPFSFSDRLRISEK

Answered examples (3):
querysmiles=Cn1nc(Nc2ccccc2)c(C(F)(F)F)c1C(=O)Nc1cnc(-n2nccn2)c(Cl)c1 readoutname=IC50 result="< 500 nM"
querysmiles=Cn1nc(-c2csc3cnccc23)c(C(F)(F)F)c1C(=O)Nc1cnc(-n2nccn2)c(C(F)(F)F)c1 readoutname=IC50 result="< 500 nM"
querysmiles=Cn1nc(-c2ccc(=O)n(C)c2)c(C(F)(F)F)c1C(=O)Nc1ccnc(C(F)(F)F)c1 readoutname=IC50 result="2500 to 10000 nM"

In the following, a different compound is considered.
Prompt line: Specify measured IC50 for Cn1nc(-c2cncc3ccsc23)c(C(F)(F)F)c1C(=O)Nc1ccnc(C(F)(F)F)c1 .
Response line: 500 to 2500 nM

* * *

pIC50: −log10 of the molar value.
Reported pIC50, UniProt:Q9UDY8.

querysmiles=Cn1nc(-c2cccc3nccn23)c(C(F)(F)F)c1C(=O)Nc1ccnc(C(F)(F)F)c1 readoutname=pIC50 result="5.60 to 6.30"

Prompt line: Look up pIC50 of Cn1nc(-c2ccc(C#N)cc2Cl)c(C(F)(F)F)c1C(=O)Nc1cnc(-n2nccn2)c(Cl)c1 and report it.
Response line: > 6.30

Prompt line: State its pIC50 for this compound: COCCn1nc(-c2ccccc2)c(C(F)(F)F)c1C(=O)Nc1cnc(-n2nccn2)c(C#N)c1
Response line: 5.60 to 6.30

Prompt line: Retrieve pIC50 measured for Cn1nc(-c2cccc3c2OCC3)c(C(F)(F)F)c1C(=O)Nc1ccnc(C(F)(F)F)c1 and print it.
Response line: > 6.30

Prompt line: Report pIC50, nothing else, for this compound: Cc1nc2cccc(-c3nn(C)c(C(=O)Nc4ccnc(C5CC5)c4)c3C(F)(F)F)c2s1
Response line: < 5.00

Prompt line: Please report pIC50 for the following compound: Cn1nc(-c2cncc3ncccc23)c(C(F)(F)F)c1C(=O)Nc1ccnc(C(F)(F)F)c1
Response line: 5.00 to 5.60

Prompt line: Give recorded pIC50. Cn1nc(-c2n[nH]c3ncncc23)c(C(F)(F)F)c1C(=O)Nc1ccnc(C(F)(F)F)c1
Response line: < 5.00
